Tested on: Adult mongrel dogs
Test: Cardiotonic activity: hemodynamic and inotropic responses (MAP, HR, dP/dt, contractile force) in anesthetized dogs, iv infusion
Format: in vivo, mongrel dog
Settings: Canis lupus familiaris, Table 1, 1.875 mg/kg iv, cumulative dose, read-out: HR (heart rate), % from Control
The following compounds are listed with their measured change in vivo at 1.875 mg/kg values.
The figure you give is taken to be in %; do not add the unit.

Example compounds with recorded change in vivo at 1.875 mg/kg:
| compound | unit spec | change in vivo at 1.875 mg/kg |
| --- | --- | --- |
| OC(CSc1ncnc2[nH]cnc12)CN1CCN(C(c2ccc(Cl)cc2)c2ccc(Cl)cc2)CC1 (stereo not shown) [Example 16, Hydrate] | % | -4 |
| OC(CSc1ncnc2[nH]cnc12)CN1CCN(C(c2ccccc2)c2ccccc2)CC1 (stereo not shown) [Example 4, Hemihydrate] | % | -1 |
| OC(CSc1ncnc2[nH]cnc12)CN1CCN(C(c2ccccc2)c2ccc(Cl)cc2)CC1 (stereo not shown) [Example 7, Monohydrate] | % | 0 |

Now for the compound whose change in vivo at 1.875 mg/kg we want.
Observed change in vivo at 1.875 mg/kg, Adult mongrel dogs, OC(CSc1ncnc2[nH]cnc12)CN1CCN(Cc2ccccc2)CC1 (stereo not shown) [Example 5, Hydrate] : 5

---

Test system: Adult mongrel dogs
Experiment: Cardiotonic activity: hemodynamic and inotropic responses (MAP, HR, dP/dt, contractile force) in anesthetized dogs, iv infusion
Format: in vivo, mongrel dog
Conditions: Canis lupus familiaris, Table 2, 1.875 mpk iv, read-out: HR (heart rate), percent change from pre-drug control
readout name: change in vivo at 1.875 mg/kg (%)
Respond numerically; units are % and should not be typed.

// below: answered molecules
| molecule | observed value |
| --- | --- |
| CN(CC(O)CN1CCN(C(c2ccc(F)cc2)c2ccc(F)cc2)CC1)c1ncnc2[nH]cnc12 (stereo not shown) [Example 28, Hemihydrate] | 16 |
| Cc1nc(SCC(O)CN2CCN(C(c3ccc(F)cc3)c3ccc(F)cc3)CC2)c2nc[nH]c2n1 (stereo not shown) [Example 30] | 1 |
| CCN(CC(O)CN1CCN(C(c2ccc(F)cc2)c2ccc(F)cc2)CC1)c1ncnc2nc[nH]c12 (stereo not shown) [Example 27] | 6 |

Please examine the following record next.
Lab book: change in vivo at 1.875 mg/kg of COC(=O)CCn1cnc2c(SCC(CN3CCN(C(c4ccc(F)cc4)c4ccc(F)cc4)CC3)OC(C)=O)ncnc21 (stereo not shown) [Example 26] noted as -3

---

Test system: Adult mongrel dogs
Experiment: Cardiotonic activity: hemodynamic and inotropic responses (MAP, HR, dP/dt, contractile force) in anesthetized dogs, iv infusion
Type: in vivo, mongrel dog
Details: Canis lupus familiaris, Table 2, 1.875 mpk iv, read-out: CF (myocardial contractile force), percent change from pre-drug control
readout name: change in vivo at 1.875 mg/kg (%)
A number alone suffices; assume %.

# example entries with known answers
| molecule | readout name | observed value |
| --- | --- | --- |
| CCN(CC(O)CN1CCN(C(c2ccc(F)cc2)c2ccc(F)cc2)CC1)c1ncnc2nc[nH]c12 (centres unmarked) [Example 27] | change in vivo at 1.875 mg/kg | 10 |
| OC(CSc1ncnc2[nH]cnc12)CN1CCN(C(c2cccc(C(F)(F)F)c2)c2cccc(C(F)(F)F)c2)CC1 (centres unmarked) [Example 23, Hemihydrate] | change in vivo at 1.875 mg/kg | 44 |
| Cn1cnc2c(SCC(O)CN3CCN(C(c4ccc(F)cc4)c4ccc(F)cc4)CC3)ncnc21 (centres unmarked) [Example 29, Hemihydrate] | change in vivo at 1.875 mg/kg | 50 |
| Nc1nc(SCC(O)CN2CCN(C(c3ccc(F)cc3)c3ccc(F)cc3)CC2)c2nc[nH]c2n1 (centres unmarked) [Example 25, Hemihydrate] | change in vivo at 1.875 mg/kg | 84 |
| CN(CC(O)CN1CCN(C(c2ccc(F)cc2)c2ccc(F)cc2)CC1)c1ncnc2[nH]cnc12 (centres unmarked) [Example 28, Hemihydrate] | change in vivo at 1.875 mg/kg | 95 |
| COC(=O)CCn1cnc2c(SCC(CN3CCN(C(c4ccc(F)cc4)c4ccc(F)cc4)CC3)OC(C)=O)ncnc21 (centres unmarked) [Example 26] | change in vivo at 1.875 mg/kg | 34 |
| Cc1nc(SCC(O)CN2CCN(C(c3ccc(F)cc3)c3ccc(F)cc3)CC2)c2nc[nH]c2n1 (centres unmarked) [Example 30] | change in vivo at 1.875 mg/kg | 23 |

The value of change in vivo at 1.875 mg/kg measured for the molecule OC(CSc1ncnc2[nH]c(-c3ccccc3)nc12)CN1CCN(C(c2ccc(F)cc2)c2ccc(F)cc2)CC1 (centres unmarked) [Example 24] turned out to be 12

---

System: Adult mongrel dogs
Experiment: Cardiotonic activity: hemodynamic and inotropic responses (MAP, HR, dP/dt, contractile force) in anesthetized dogs, iv infusion
Assay type: in vivo, mongrel dog
Details: Canis lupus familiaris, Table 1, 1.875 mg/kg iv, cumulative dose, read-out: HR (heart rate), % from Control
readout name: change in vivo at 1.875 mg/kg (%)
# unit: % | format: bare number

Guide cases for change in vivo at 1.875 mg/kg, answers given:
| compound | change in vivo at 1.875 mg/kg (%) |
| --- | --- |
| OC(CSc1ncnc2[nH]cnc12)CN1CCN(C(c2ccc(C(F)(F)F)cc2)c2cccc(C(F)(F)F)c2)CC1 (stereo not shown) | 0 |
| O[C@H](CSc1ncnc2nc[nH]c12)CN1CCN(C(c2ccc(F)cc2)c2ccc(F)cc2)CC1 | -6 |
| OC(COc1ncnc2c1ncn2C1CCCCO1)CN1CCN(C(c2ccccc2)c2ccccc2)CC1 (stereo not shown) | 3 |

// recorded change in vivo at 1.875 mg/kg for OC(CSc1ncnc2[nH]cnc12)CN1CCC(=C(c2ccc(F)cc2)c2ccc(F)cc2)CC1 (stereo not shown) [Example 15, Hemihydrate] : -7

Consider OC(COc1ncnc2c1ncn2C1CCCCO1)CN1CCN(C(c2ccc(F)cc2)c2ccc(F)cc2)CC1 (stereo not shown) . Its measured change in vivo at 1.875 mg/kg is 0

The compound listed as OC(CSc1ncnc2[nH]cnc12)CN1CCN(Cc2ccc3c(c2)OCO3)CC1 (stereo not shown) [Example 6, Sesquihydrate] shows change in vivo at 1.875 mg/kg equal to 15

So for OC(CSc1ncnc2[nH]cnc12)CN1CCN(C(c2ccc(F)cc2)c2ccc(F)cc2)CC1 (stereo not shown) [Example 1, Hemihydrate] , the logged change in vivo at 1.875 mg/kg turned out to be 1

---

System: Adult mongrel dogs
Experiment: Cardiotonic activity: hemodynamic and inotropic responses (MAP, HR, dP/dt, contractile force) in anesthetized dogs, iv infusion
Type: in vivo, mongrel dog
Conditions: Canis lupus familiaris, Table 1, 1.875 mg/kg iv, cumulative dose, read-out: CF (myocardial contractile force), % from Control
Quick reference: change in vivo at 1.875 mg/kg of the listed items.
Please respond with the number in % and leave the unit unwritten.

Sample records with change in vivo at 1.875 mg/kg:
| compound | measurement target | change in vivo at 1.875 mg/kg, % |
| --- | --- | --- |
| OC(CSc1ncnc2[nH]cnc12)CN1CCN(C(c2ccc(C(F)(F)F)cc2)c2cccc(C(F)(F)F)c2)CC1 (stereo not shown) | Adult mongrel dogs | 71 |
| OC(CSc1ncnc2[nH]cnc12)CN1CCN(C(c2ccc(Cl)cc2)c2ccc(Cl)cc2)CC1 (stereo not shown) [Example 16, Hydrate] | Adult mongrel dogs | 151 |
| OC(COc1ncnc2c1ncn2C1CCCCO1)CN1CCN(C(c2ccc(F)cc2)c2ccc(F)cc2)CC1 (stereo not shown) | Adult mongrel dogs | 37 |
| OC(COc1ncnc2[nH]cnc12)CN1CCN(C(c2ccc(F)cc2)c2ccc(F)cc2)CC1 (stereo not shown) | Adult mongrel dogs | 80 |
| Fc1ccc(C(c2ccc(F)cc2)N2CCN(CCCSc3ncnc4nc[nH]c34)CC2)cc1 | Adult mongrel dogs | 38 |
| OC(CSc1ncnc2[nH]cnc12)CN1CCC(=C(c2ccc(F)cc2)c2ccc(F)cc2)CC1 (stereo not shown) [Example 15, Hemihydrate] | Adult mongrel dogs | 87 |

The compound identified as O[C@H](CSc1ncnc2nc[nH]c12)CN1CCN(C(c2ccc(F)cc2)c2ccc(F)cc2)CC1 registered its change in vivo at 1.875 mg/kg at 212

---

Tested on: Adult mongrel dogs
Assay: Cardiotonic activity: hemodynamic and inotropic responses (MAP, HR, dP/dt, contractile force) in anesthetized dogs, iv infusion
Assay type: in vivo, mongrel dog
Conditions: Canis lupus familiaris, Table 2, 1.875 mpk iv, read-out: HR (heart rate), percent change from pre-drug control
readout name: change in vivo at 1.875 mg/kg (%)
Please give a number only; it is taken to be in %.

Some entries whose results are on file:
| compound | change in vivo at 1.875 mg/kg, % |
| --- | --- |
| OC(CSc1ncnc2[nH]cnc12)CN1CCN(C(c2cccc(C(F)(F)F)c2)c2cccc(C(F)(F)F)c2)CC1 (stereo not shown) [Example 23, Hemihydrate] | -7 |
| Cn1cnc2c(SCC(O)CN3CCN(C(c4ccc(F)cc4)c4ccc(F)cc4)CC3)ncnc21 (stereo not shown) [Example 29, Hemihydrate] | -2 |
| OC(CSc1ncnc2[nH]c(-c3ccccc3)nc12)CN1CCN(C(c2ccc(F)cc2)c2ccc(F)cc2)CC1 (stereo not shown) [Example 24] | 4 |

Now, please, on to the next compound.
change in vivo at 1.875 mg/kg measured on Nc1nc(SCC(O)CN2CCN(C(c3ccc(F)cc3)c3ccc(F)cc3)CC2)c2nc[nH]c2n1 (stereo not shown) [Example 25, Hemihydrate] = 9
